Kindly state MBEC-Biofilm Inhibition, Without compound 9 for each of the entries shown.
test system: Pseudomonas aeruginosa ATCC 27853; assay: MBEC assay, biofilm inhibition (prevention of biofilm formation), MBEC bioFILM PA panel; assay type: cell-based; parameters: unit not given here; conditions: antibiotic alone
Answer using only a numeral; do not append any unit.

Simply: `NC[C@H]1O[C@H](O[C@H]2[C@H](O)[C@@H](O[C@H]3O[C@H](CO)[C@@H](O)[C@H](N)[C@H]3O)[C@H](N)C[C@@H]2N)[C@H](N)C[C@@H]1O` , Pseudomonas aeruginosa ATCC 27853, MBEC-Biofilm Inhibition, Without compound 9 = 2

Simply: `O=C(O)c1cn(C2CC2)c2cc(N3CCNCC3)c(F)cc2c1=O` , Pseudomonas aeruginosa ATCC 27853, MBEC-Biofilm Inhibition, Without compound 9 = 0.5
